Reference for the values: patent US20220195015A1

Target: SARS-CoV-2 spike receptor binding domain (RBD), S protein residues 319-539 (SARS-CoV-2, UniProt P0DTC2 319-539)
Test: ELISA on coated RBD
Listing of recorded EC50 by entry.
Numbers only here, please. The scale is ng/mL.

// known answers, use as guide
Prompt: Param item = C507 (antibody, V domains shown) VH: EVQLVESGGGVVQPGRSLRLSCAASGFTFSSYAIHWVRQAPGKGLEWVAVISFDGSNKYYRDSVKGRFTISRDNGKNTLYLQMNSLRAEDTAVYYCAKAALGYCTNGVCYCDNWGQGTLVTVSS VL: NFMLTQPHSVSESPGKTVTISCTGSSGSIASNYVQWYQQRPGSAPTTVIYEDNQRPSGVPDRFSGSIDSSSNSASLSISGLKTEDEADYYCQSYDINSLWVFGGGTRLTVL ; retrieve measured EC50.
Response: 5.6

Prompt: Next record, please: C540 (antibody, V domains shown) VH: EVQLVESGGGLVQPGGSLRLSCAASGFTFRNYDMHWVRQVAGKGLEWVSAIGTSGDTYYPDSVKGRFTISRENAKNSVYLQMNNLRAGDTAVYFCVRDREISGWTGWYFDLWGRGTLVTVSS VL: DIQMTQSPSSLSASVGDRVTITCRASQTIHNYLNWYQQIPGKAPRLLIYATNTLQSGVPSRFSGSGSGTDFTLTITGLQPEDFATYYCQQSYSTPPITFGQGTRLEIK
Response: 2.9

Prompt: Next record, please: C539 (antibody, V domains shown) VH: EVQLVESGGGLVQPGRSLRLSCAASGFTFDDYALHWVRQAPGKGLEWVSGISWNGDSIGYADSVKGRFTISRDNAKNSLSLQMNSLTAEDTALYYCAKGVEYSSSSNCDYWGQGTLVTVSS VL: DIQMTQSPSSVSASVGDRVTITCRASQDISSWLAWYQQKPGKAPKLLISLASGLQSGVPSRFSGSGSETDFTLTISSLQPEDFATYYCQQTNSFPLTFGGGTKVEI
Response: 1.3

Moving on to another binder below.
Prompt: Param item = C598 (antibody, V domains shown) VH: QVQLVQSGPEVKKPGTSVKVSCKASGFTFSSSAVQWVRQARGQRLEWIGWIVVGSGNTNYAQKFQERVTITRDMSTSTAYMELSSLRSEDTAVFYCAAPYCNVTTCFDGFNIWGRGTMVTVSS VL: EIVLTQSPGTLSLSPGERATLSCRASQSVRSSYFAWYQQKPGQAPRLLIYAASSRATGIPDRFSGSGSGTDFTLTISRLEPEDFALYYCQQYGSSPWTFGQGTKVEIK ; retrieve measured EC50.
Response: 3.78
